Let's look at some compounds and their measured log10 of TGI.
Tested on: HS 578T breast
Assay: NCI tumour cell line growth inhibition, 48 h
Could you please treat all values as log10 of TGI in µM?

Some compounds with recorded log10 of TGI:
Compound	Tested on	log10 of TGI
O=C1c2cccc(NCCN=Cc3ccccc3O)c2C(=O)c2c(NCCN=Cc3ccccc3O)cccc21	HS 578T breast	0.60
CC(C)Cc1cc2c(cc1O)CCC1C2CC[C@@]2(C)C1CC[C@@H]2O (stereo partly specified)	HS 578T breast	1.37
COc1cc(/C=C2\C[C@H]3[C@@H]4CC=C5C[C@@H](O)CC[C@]5(C)[C@H]4CC[C@]3(C)[C@H]2O)ccc1OCCCn1ccnc1	HS 578T breast	0.63
CCN(CC)Cc1c(/C=C\c2cc(OC)c(OC)c(OC)c2)ccc(OC)c1O	HS 578T breast	0.79
COc1ccc(C2=NN(C(=O)c3cc(OC)c(OC)c(OC)c3)C(c3ccc(N(C)C)cc3)C2)cc1 (stereo unspecified)	HS 578T breast	0.19
CCOC(=O)C(C(=S)SC)c1nn2c(=O)cc(C)nc2s1 (stereo unspecified)	HS 578T breast	1.65
O=C1OCC2=C1C(c1ccc(Cl)c(Cl)c1)c1cc3c(cc1N2CCO)CCC3 (stereo unspecified)	HS 578T breast	1.16
CCN1Cc2nc3sc(C)c(C)c3c(=O)n2C=C1C	HS 578T breast	0.84

Continue with the next compound.
Asked: For the record `C[C@@H](NC(=O)c1ccc(CNC(=O)/C=C/c2cccc(Oc3ccccc3)c2)cc1)c1ccccc1` , what value of log10 of TGI is listed for HS 578T breast?
Given back: 1.52
